biological target: Protein cereblon/Sal-like protein 4 (Homo sapiens, UniProt Q96SW2+Q9UJQ4); experiment: Molecular glue activity at CRBN/HiBiT-tagged SALL4 (unknown origin) expressed in human GripTite 293 MSR cells assessed as induction of SALL4 degradation incubated for 20 hrs by Nano-Glo HiBiT-Lytic reagent based luminescence plate reader analysis relative to control; assay type: cell-based; parameters: concentration or dose not given beside the values
Sequence (Q96SW2 whole entry, looked up): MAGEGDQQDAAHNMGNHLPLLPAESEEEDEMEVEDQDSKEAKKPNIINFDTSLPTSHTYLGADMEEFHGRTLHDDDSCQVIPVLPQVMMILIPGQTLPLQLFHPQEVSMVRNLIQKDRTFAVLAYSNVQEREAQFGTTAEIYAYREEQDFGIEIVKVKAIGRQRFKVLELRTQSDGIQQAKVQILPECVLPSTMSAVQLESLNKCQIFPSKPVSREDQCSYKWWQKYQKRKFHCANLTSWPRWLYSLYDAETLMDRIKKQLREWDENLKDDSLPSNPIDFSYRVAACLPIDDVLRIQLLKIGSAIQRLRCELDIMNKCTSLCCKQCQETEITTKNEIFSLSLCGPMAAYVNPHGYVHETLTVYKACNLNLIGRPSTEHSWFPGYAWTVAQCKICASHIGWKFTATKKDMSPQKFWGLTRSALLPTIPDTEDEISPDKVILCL
Sequence (Q9UJQ4 whole entry, looked up): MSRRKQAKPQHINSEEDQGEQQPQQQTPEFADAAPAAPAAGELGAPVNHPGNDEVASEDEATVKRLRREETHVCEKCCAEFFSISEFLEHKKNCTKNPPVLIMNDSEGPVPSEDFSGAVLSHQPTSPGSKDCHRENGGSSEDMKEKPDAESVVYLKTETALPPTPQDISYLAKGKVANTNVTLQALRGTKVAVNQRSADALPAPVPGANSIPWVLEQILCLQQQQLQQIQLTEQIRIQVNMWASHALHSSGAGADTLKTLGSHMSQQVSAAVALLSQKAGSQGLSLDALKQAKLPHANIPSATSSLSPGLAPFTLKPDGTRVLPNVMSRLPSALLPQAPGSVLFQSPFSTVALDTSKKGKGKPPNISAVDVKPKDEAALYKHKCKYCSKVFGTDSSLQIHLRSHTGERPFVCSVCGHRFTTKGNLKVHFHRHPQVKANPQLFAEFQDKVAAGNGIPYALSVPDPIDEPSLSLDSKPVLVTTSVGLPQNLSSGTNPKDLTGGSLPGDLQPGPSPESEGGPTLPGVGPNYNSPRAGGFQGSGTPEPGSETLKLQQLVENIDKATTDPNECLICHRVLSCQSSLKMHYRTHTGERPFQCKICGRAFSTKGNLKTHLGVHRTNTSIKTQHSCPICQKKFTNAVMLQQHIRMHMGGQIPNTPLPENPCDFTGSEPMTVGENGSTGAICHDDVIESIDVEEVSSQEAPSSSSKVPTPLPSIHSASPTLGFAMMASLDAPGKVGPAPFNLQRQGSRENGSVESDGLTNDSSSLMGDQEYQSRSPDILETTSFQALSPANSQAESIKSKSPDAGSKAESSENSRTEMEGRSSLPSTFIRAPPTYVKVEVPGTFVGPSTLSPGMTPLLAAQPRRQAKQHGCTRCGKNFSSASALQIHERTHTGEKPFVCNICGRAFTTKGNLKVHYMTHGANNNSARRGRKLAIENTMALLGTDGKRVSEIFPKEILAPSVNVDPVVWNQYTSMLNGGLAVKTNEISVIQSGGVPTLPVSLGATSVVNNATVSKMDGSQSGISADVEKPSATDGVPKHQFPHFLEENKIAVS
PROPERTY: Activity (%)

| COMPOUND | PROPERTY | RESULT |
| --- | --- | --- |
| C[C@@H](Oc1ccc2c(c1)CN(C1CCC(=O)NC1=O)C2=O)[C@H]1CCCCN1C (stereo not given in full) | Activity | 58 |
| CCN1CCC2(CC2)[C@@H](Oc2ccc3c(c2)CN(C2CCC(=O)NC2=O)C3=O)C1 (stereo not given in full) | Activity | 11 |
| CCN1CCCC[C@@H]1COc1ccc2c(c1)CN(C1CCC(=O)NC1=O)C2=O (stereo not given in full) | Activity | 50 |
| CCN1CCC[C@H](Oc2ccc3c(c2)CN(C2CCC(=O)NC2=O)C3=O)C1 (stereo not given in full) | Activity | 27 |
| CCN1C[C@H](C)C[C@@H](Oc2ccc3c(c2)CN(C2CCC(=O)NC2=O)C3=O)C1 (stereo in doubt; 10) | Activity | 26 |

This collection of values is drawn from ChEMBL document CHEMBL6074667.
